Ref: paper PMC7400135

Tested on: M. tuberculosis H37Rv (ATCC 25618)
Mark met only when MIC stays strictly below 0.5 µg/mL. Values equal to the cut-off are not met.

>>> answer_label("O=C(/C=C/c1ccc([N+](=O)[O-])o1)c1ccc(N2CCCCC2)cc1")
"met"
>>> answer_label("O=[N+]([O-])c1cn2c(n1)OC[C@@H](OCc1ccc(OC(F)(F)F)cc1)C2")
"met"
>>> answer_label("CN(Cc1cnc2nc(N)nc(N)c2n1)c1ccc(C(=O)N[C@@H](CCC(=O)O)C(=O)O)cc1 [Methotrexate, reference compound]")
"not met"
>>> answer_label("NNC(=O)c1ccncc1 [Isoniazid, reference compound]")
"not met"
>>> answer_label("CO[C@H]1/C=C/O[C@@]2(C)Oc3c(C)c(O)c4c(O)c(c(/C=N/N5CCN(C)CC5)c(O)c4c3C2=O)NC(=O)/C(C)=C\\C=C\\[C@H](C)[C@H](O)[C@@H](C)[C@@H](O)[C@@H](C)[C@H](OC(C)=O)[C@@H]1C")
"met"
>>> answer_label("O=C(/C=C/c1ccc([N+](=O)[O-])o1)c1ccc(N2CCOCC2)cc1")
"met"
>>> answer_label("CC[C@@H](CO)NCCN[C@@H](CC)CO")
"not met"
